Target: T1, Human CD3eg linker (human)
T1 construct: Single chain: epsilon and gamma subunits of human CD3 joined by a 29-mer linker, Flag-tag at the C-terminus; also called recombinant human CD3
T1 chain: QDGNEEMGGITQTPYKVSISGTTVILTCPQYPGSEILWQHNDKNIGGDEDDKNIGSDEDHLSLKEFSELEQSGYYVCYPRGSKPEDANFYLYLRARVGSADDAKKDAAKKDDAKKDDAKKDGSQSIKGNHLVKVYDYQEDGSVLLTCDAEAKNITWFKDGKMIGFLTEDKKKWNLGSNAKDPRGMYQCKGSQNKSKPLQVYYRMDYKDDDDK
Assay: Biacore SPR, vs template H183/L072

BINDER	UNIT_ANNOTATION	fold change of affinity
H183/L072 VH H35K (antibody, name in Kabat numbering, V domains shown) VH: QVQLVESGGGLVQPGRSLRLSCAASGFTFSNAWMKWVRQAPGKGLEWVAQIKDKGNAYAAYYAPSVKGRFTISRDDSKNSIYLQMNSLKTEDTAVYYCHYVHYASASTVLPAFGVDAWGQGTTVTVSS VL: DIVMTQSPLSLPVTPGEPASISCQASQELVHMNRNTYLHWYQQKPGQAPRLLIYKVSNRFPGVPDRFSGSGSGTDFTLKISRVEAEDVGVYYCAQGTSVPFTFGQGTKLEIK	fold	0
H183/L072 VH A54G (antibody, name in Kabat numbering, V domains shown) VH: QVQLVESGGGLVQPGRSLRLSCAASGFTFSNAWMHWVRQAPGKGLEWVAQIKDKGNGYAAYYAPSVKGRFTISRDDSKNSIYLQMNSLKTEDTAVYYCHYVHYASASTVLPAFGVDAWGQGTTVTVSS VL: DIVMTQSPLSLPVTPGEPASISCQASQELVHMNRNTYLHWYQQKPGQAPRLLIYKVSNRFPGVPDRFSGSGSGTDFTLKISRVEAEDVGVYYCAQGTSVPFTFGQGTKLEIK	fold	1
H183/L072 VH Y58H (antibody, name in Kabat numbering, V domains shown) VH: QVQLVESGGGLVQPGRSLRLSCAASGFTFSNAWMHWVRQAPGKGLEWVAQIKDKGNAYAAHYAPSVKGRFTISRDDSKNSIYLQMNSLKTEDTAVYYCHYVHYASASTVLPAFGVDAWGQGTTVTVSS VL: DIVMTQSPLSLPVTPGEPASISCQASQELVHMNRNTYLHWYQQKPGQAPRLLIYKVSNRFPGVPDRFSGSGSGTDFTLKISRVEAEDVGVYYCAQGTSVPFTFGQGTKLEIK	fold	0.6
H183/L072 VH N53Q (antibody, name in Kabat numbering, V domains shown) VH: QVQLVESGGGLVQPGRSLRLSCAASGFTFSNAWMHWVRQAPGKGLEWVAQIKDKGQAYAAYYAPSVKGRFTISRDDSKNSIYLQMNSLKTEDTAVYYCHYVHYASASTVLPAFGVDAWGQGTTVTVSS VL: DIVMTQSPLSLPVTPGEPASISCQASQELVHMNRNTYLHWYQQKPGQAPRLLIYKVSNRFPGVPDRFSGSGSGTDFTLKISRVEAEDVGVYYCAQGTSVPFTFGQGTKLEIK	fold	0.5
H183/L072 VH G26H (antibody, name in Kabat numbering, V domains shown) VH: QVQLVESGGGLVQPGRSLRLSCAASHFTFSNAWMHWVRQAPGKGLEWVAQIKDKGNAYAAYYAPSVKGRFTISRDDSKNSIYLQMNSLKTEDTAVYYCHYVHYASASTVLPAFGVDAWGQGTTVTVSS VL: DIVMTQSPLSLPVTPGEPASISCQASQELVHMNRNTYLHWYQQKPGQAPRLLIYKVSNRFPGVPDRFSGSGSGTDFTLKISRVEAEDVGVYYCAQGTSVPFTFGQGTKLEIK	fold	0
H183/L072 VH A32F (antibody, name in Kabat numbering, V domains shown) VH: QVQLVESGGGLVQPGRSLRLSCAASGFTFSNFWMHWVRQAPGKGLEWVAQIKDKGNAYAAYYAPSVKGRFTISRDDSKNSIYLQMNSLKTEDTAVYYCHYVHYASASTVLPAFGVDAWGQGTTVTVSS VL: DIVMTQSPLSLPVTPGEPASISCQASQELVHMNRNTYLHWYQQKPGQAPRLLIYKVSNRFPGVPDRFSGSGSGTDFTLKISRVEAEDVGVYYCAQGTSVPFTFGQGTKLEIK	fold	0
H183/L072 VH T100bP (antibody, name in Kabat numbering, V domains shown) VH: QVQLVESGGGLVQPGRSLRLSCAASGFTFSNAWMHWVRQAPGKGLEWVAQIKDKGNAYAAYYAPSVKGRFTISRDDSKNSIYLQMNSLKTEDTAVYYCHYVHYASASPVLPAFGVDAWGQGTTVTVSS VL: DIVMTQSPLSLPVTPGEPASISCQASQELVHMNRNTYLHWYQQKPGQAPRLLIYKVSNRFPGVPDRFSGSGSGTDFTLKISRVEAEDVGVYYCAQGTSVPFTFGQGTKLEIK	fold	1.1
H183/L072 VH Y55A (antibody, name in Kabat numbering, V domains shown) VH: QVQLVESGGGLVQPGRSLRLSCAASGFTFSNAWMHWVRQAPGKGLEWVAQIKDKGNAAAAYYAPSVKGRFTISRDDSKNSIYLQMNSLKTEDTAVYYCHYVHYASASTVLPAFGVDAWGQGTTVTVSS VL: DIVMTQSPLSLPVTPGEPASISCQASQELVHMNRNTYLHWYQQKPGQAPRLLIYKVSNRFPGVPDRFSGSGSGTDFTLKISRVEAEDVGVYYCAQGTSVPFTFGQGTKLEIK	fold	0.4
H183/L072 VH K52bL (antibody, name in Kabat numbering, V domains shown) VH: QVQLVESGGGLVQPGRSLRLSCAASGFTFSNAWMHWVRQAPGKGLEWVAQIKDLGNAYAAYYAPSVKGRFTISRDDSKNSIYLQMNSLKTEDTAVYYCHYVHYASASTVLPAFGVDAWGQGTTVTVSS VL: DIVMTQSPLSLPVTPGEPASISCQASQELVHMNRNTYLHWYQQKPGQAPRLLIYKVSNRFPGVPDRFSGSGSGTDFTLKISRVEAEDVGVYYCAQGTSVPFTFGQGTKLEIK	fold	0.6
H183/L072 VH A56V (antibody, name in Kabat numbering, V domains shown) VH: QVQLVESGGGLVQPGRSLRLSCAASGFTFSNAWMHWVRQAPGKGLEWVAQIKDKGNAYVAYYAPSVKGRFTISRDDSKNSIYLQMNSLKTEDTAVYYCHYVHYASASTVLPAFGVDAWGQGTTVTVSS VL: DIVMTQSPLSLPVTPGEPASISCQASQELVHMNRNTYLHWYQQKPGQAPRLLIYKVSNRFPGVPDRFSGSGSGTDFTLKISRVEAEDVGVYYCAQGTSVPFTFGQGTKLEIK	fold	0.7
